- system: rFAAH (Rattus norvegicus, UniProt P97612)
- experimental details: FAAH assay, rFAAH kobs/I
- Format: biochemical
- cond: additional data table, unit not given
result type: FAAH_KINACTR:rFAAH:kobs/I

| mol | value reported |
| --- | --- |
| Cc1oncc1NC(=O)N1CCC(=Cc2cccc(OCC3CCCC3)c2)CC1 | <10.0 |
| O=C(Nc1cnoc1)N1CCC(=Cc2cccc(OC3CCC(F)(F)CC3)c2)CC1 | <10.0 |
| Cc1ncsc1CCOc1cccc(C=C2CCN(C(=O)Nc3cnoc3)CC2)c1 | <10.0 |

====

- system: rFAAH (Rattus norvegicus)
- Sequence (P97612 1-579): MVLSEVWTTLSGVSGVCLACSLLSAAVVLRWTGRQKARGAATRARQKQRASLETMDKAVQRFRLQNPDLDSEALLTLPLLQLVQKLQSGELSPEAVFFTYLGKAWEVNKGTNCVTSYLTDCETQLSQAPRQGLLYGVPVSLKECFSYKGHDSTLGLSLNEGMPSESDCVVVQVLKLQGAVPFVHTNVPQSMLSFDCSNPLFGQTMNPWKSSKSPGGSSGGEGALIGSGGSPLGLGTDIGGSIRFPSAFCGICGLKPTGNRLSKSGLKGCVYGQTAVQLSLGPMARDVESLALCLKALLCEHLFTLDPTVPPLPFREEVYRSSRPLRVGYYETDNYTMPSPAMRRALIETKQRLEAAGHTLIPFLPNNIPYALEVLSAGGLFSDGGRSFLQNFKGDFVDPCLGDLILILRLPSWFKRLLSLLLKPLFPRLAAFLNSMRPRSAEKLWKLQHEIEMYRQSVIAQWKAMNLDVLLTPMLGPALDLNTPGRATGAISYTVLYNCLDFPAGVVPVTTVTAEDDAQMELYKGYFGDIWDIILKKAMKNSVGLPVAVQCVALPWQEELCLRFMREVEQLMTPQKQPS
- experimental details: FAAH assay, rFAAH kobs/I
- Type: biochemical
- cond: additional data table, unit not given
Entries and their FAAH_KINACTR:rFAAH:kobs/I
result type: FAAH_KINACTR:rFAAH:kobs/I

| compound | system | result type | value reported |
| --- | --- | --- | --- |
| Cc1ncsc1CCOc1cccc(C=C2CCN(C(=O)Nc3cnoc3C)CC2)c1 | rFAAH (Rattus norvegicus) | FAAH_KINACTR:rFAAH:kobs/I | <11.9 |
| Cc1oncc1NC(=O)N1CCC(=Cc2cccc(OCCCc3cnoc3)c2)CC1 | rFAAH (Rattus norvegicus) | FAAH_KINACTR:rFAAH:kobs/I | <13.2 |
| Cc1oncc1NC(=O)N1CCC(=Cc2cccc(OCC(C)CC(F)(F)F)c2)CC1 (stereo not drawn) | rFAAH (Rattus norvegicus) | FAAH_KINACTR:rFAAH:kobs/I | <11.5 |
| Cc1oncc1NC(=O)N1CCC(=Cc2cccc(OCCOC(C)C)c2)CC1 | rFAAH (Rattus norvegicus) | FAAH_KINACTR:rFAAH:kobs/I | <12.6 |
| Cc1oncc1NC(=O)N1CCC(=Cc2cccc(OCCCC(F)(F)F)c2)CC1 | rFAAH (Rattus norvegicus) | FAAH_KINACTR:rFAAH:kobs/I | <10.0 |
| Cc1oncc1NC(=O)N1CCC(=Cc2cccc(OCC3CCCCO3)c2)CC1 (stereo not drawn) | rFAAH (Rattus norvegicus) | FAAH_KINACTR:rFAAH:kobs/I | <11.3 |
